// values below are reported pIC50
biological target: Avi-KRAS G12D (1-169) GppNHp/RAF1 RBD-3xFLAG (52-151) (Homo sapiens, UniProt P01116, G12D); construct: Avi-KRAS G12D (1-169); assay: Raf1-KRAS G12D-GppNHP disruption HTRF assay (Biological Example 1); assay type: binding; settings: KRAS G12D-GppNHp/RAF1 RBD HTRF
Sequence (P01116 1-169 isoform P01116-2 G12D): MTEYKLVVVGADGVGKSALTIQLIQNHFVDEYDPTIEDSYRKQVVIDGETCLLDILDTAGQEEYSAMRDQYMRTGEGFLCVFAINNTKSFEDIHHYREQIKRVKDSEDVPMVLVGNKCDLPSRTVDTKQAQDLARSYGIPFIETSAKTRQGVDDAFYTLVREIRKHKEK
pIC50: −log10 of the molar value.

Compound	pIC50
C[C@H]1CS(=O)(=O)CCN1c1nc(OC[C@@]23CCCN2C[C@H](F)C3)nc2c(F)c(-c3ccc(F)c4sc(N)c(C#N)c34)c(C(F)(F)F)cc12 [Compound 302]	6.00 to 7.00
CCN(c1nc(OC[C@@]23CCCN2C[C@H](F)C3)nc2c(F)c(-c3ccc(F)c4sc(N)c(C#N)c34)c(C(F)(F)F)cc12)[C@H]1CCN(C(=O)COC)C1 (atropisomer, axis not shown) [Compound 561]	> 7.00
N#Cc1c(N)sc2c(F)ccc(-c3c(C(F)(F)F)cc4c(N5C[C@H]6C[C@H](O)[C@@H]5C6)nc(OC[C@@]56CCCN5C[C@H](F)C6)nc4c3F)c12 [Compound 361]	6.00 to 7.00
CCN(c1nc(OC[C@@]23CCCN2C[C@H](F)C3)nc2c(F)c(-c3ccc(F)c4sc(N)c(C#N)c34)c(C(F)(F)F)cc12)[C@@H]1C[C@H](C)N(C(=O)OC)C1 (atropisomer, axis not shown) [Compound 544]	6.00 to 7.00
